# Procedure Details: Compound was evaluated for rises in intracellular [Ca2+] levels pre-incubation at 2 hr in [Ca2+] Mobilization Assay
# Assay type: functional, cell-based
Quantity Kind: pIC50
The value called pIC50 is obtained by taking minus log10 of the concentration in mol/L.

Previously resolved entries follow.
# Structure As Smiles, Measured Number
records = [
    ("Cc1ncnc(C)c1C(=O)N1CCC(C)(N2CCC(N(c3ccccc3)c3ccccc3)CC2)CC1", 8.10),
    ("Cc1nc(-c2ccncc2)nc(C)c1C(=O)N1CCC(C)(N2CCC(N(c3ccccc3)c3ccccc3)CC2)CC1", 7.61),
    ("Cc1cc[n+]([O-])c(C)c1C(=O)N1CCC(C)(N2CCC(N(c3ccccc3)c3ccccc3)CC2)CC1", 7.80),
    ("CC1(N2CCC(N(c3ccccc3)c3ccccc3)CC2)CCN(C(=O)c2cccc3ccccc23)CC1", 7.54),
]

Then this compound:
## Input Return value of pIC50 for input `Cc1cccc(C)c1C(=O)N1CCC(C)(N2CCC(N(Cc3ccccc3)c3ccc(Br)cc3)CC2)CC1` , no commentary.
## Output 7.55
